All values here come from PubChem BioAssay (NCI).

tested on: EKVX NSCLC; assay: NCI tumour cell line growth inhibition, 48 h
Measurement name: TGI (µM)
Give the value, in units of µM, as a plain number.

Please review the following examples before continuing.
[
  {
    "Item smiles": "CNCC/C=C1\\c2cc3c(cc2-c2c1c1cc(OC)c(OC)cc1c(=O)n2C)OCO3",
    "Number": 18.3
  },
  {
    "Item smiles": "CN(CCNC(=O)c1c[nH]c2c1ccc1ccccc12)CCNC(=O)c1c[nH]c2c1ccc1ccccc12",
    "Number": 11.1
  },
  {
    "Item smiles": "N#Cc1cnc2cc(OC[C@@H](O)CO)c(NC(=O)C3CCCC3)cc2c1Nc1ccc(OCc2cccc(F)c2)c(Cl)c1",
    "Number": 6.74
  },
  {
    "Item smiles": "CCN(CC)c1c(-c2ccccc2)n[nH]c1C(=O)OC",
    "Number": 56.8
  }
]

With those in mind, consider the next compound.
The compound identified as `COc1cccc(-c2nn(-c3ccccc3)cc2-c2ccnc(NCCCNC(=O)c3cccc(C(F)(F)F)c3)c2)c1` registered its TGI at 36.2

---

tested on: CAKI-1 renal; experiment: NCI tumour cell line growth inhibition, 48 h; in the data active means GI50 below about 0.43 µM; inactive means the rest
Result category, one only: active, inactive

Solved cases (2 shown):
[
  {
    "Compound": "CN(C)C(=O)OCc1nc2c(N3CCOCC3)nc(-c3ccccc3)nc2n1C",
    "Class label": "inactive"
  },
  {
    "Compound": "Clc1ccc(C2CC(c3cccc(Nc4ccncc4)c3)=NN2c2ccc(Cl)cc2)cc1 (stereo not given)",
    "Class label": "inactive"
  }
]

Problem: What is the recorded call for this compound in the test? `Cc1ccc(Nc2cc(Cl)c([N+](=O)[O-])cc2[N+](=O)[O-])cc1`
Result: inactive

Problem: What is the recorded call for this compound in the test? `O=C(O)c1cc2ccccc2c2c3c(ccc12)OCO3`
Result: inactive

Problem: What is the recorded call for this compound in the test? Nc1c(C(=O)Nc2ccccn2)sc2nc3c(cc12)C(O)CCC3 (stereo not given)
Result: inactive

Problem: What is the recorded call for this compound in the test? `O=C1Nc2cc(-c3cccc(O)c3)ccc2/C1=C/c1ccc[nH]1`
Result: inactive

Problem: What is the recorded call for this compound in the test? `CC[C@@]1(OC(=O)CN(C)C)C(=O)OCc2c1cc1n(c2=O)Cc2cc3c(N)cccc3nc2-1`
Result: active

---

tested on: EKVX NSCLC; assay: NCI tumour cell line growth inhibition, 48 h
# TGI annotations

Please review the following examples before continuing.
[
  {
    "Compound": "C=C1C(=O)O[C@H]2C1C[C@@H](O)/C(C)=C/CC[C@@]1(C)O[C@H]21 (some centres not stated)",
    "TGI": "38.9 µM"
  },
  {
    "Compound": "O=C(O)c1nc2ccc(Cl)cc2[nH]c1=O",
    "TGI": "> 100 µM"
  },
  {
    "Compound": "N#COc1ccc(Oc2ccccc2)cc1",
    "TGI": "> 100 µM"
  },
  {
    "Compound": "Cc1c2n(c3ccccc13)S(=O)(=O)c1ccccc1-2",
    "TGI": "35.6 µM"
  },
  {
    "Compound": "CNCCCNC(=S)Cn1cc(C)c(=O)[nH]c1=O",
    "TGI": "> 100 µM"
  }
]

With those in mind, consider the next compound.
The compound identified as `CCOC(=O)Nc1nc2ccccc2[nH]1` registered its TGI at > 100 µM

---

test system: RXF 393 renal; experiment: NCI tumour cell line growth inhibition, 48 h
# log10 TGI annotations
log10 TGI, µM

Please review the following examples before continuing.
[
  {
    "Molecule": "COc1cccc(-c2nn(-c3ccccc3)cc2-c2ccnc(NCCCNC(=O)c3cccc(C(F)(F)F)c3)c2)c1",
    "Number": 0.88
  },
  {
    "Molecule": "O=C1/C(=C/c2ccc3c(c2)OCCO3)CCC/C1=C\\c1ccc2c(c1)OCCO2",
    "Number": 1.73
  },
  {
    "Molecule": "CCC/C=C\\C=C\\C1(NS(=O)(=O)c2ccc(C)cc2)CCC(C(C)(C)C)CC1 (stereo not given)",
    "Number": 1.51
  },
  {
    "Molecule": "NCCCOc1cc2ccccc2cc1C(=O)Nc1ccc(Cl)cc1OC(=O)c1cc2ccccc2cc1OCCCN",
    "Number": 0.23
  },
  {
    "Molecule": "O=C(O)CCO/N=C1/C(c2c(O)[nH]c3ccccc23)=Nc2ccccc21",
    "Number": 1.24
  },
  {
    "Molecule": "O=c1cc(-c2ccccc2)[nH]c2ccc(S)cc12",
    "Number": 1.83
  }
]

With those in mind, consider the next molecule.
The molecule identified as `CCOC(=O)/C(=C\NC(C)(C)C)c1nc2ccccc2[nH]1` registered its log10 TGI at 1.78

---

# TGI annotations
test system: HS 578T breast; assay: NCI tumour cell line growth inhibition, 48 h

Please review the following examples before continuing.
[
  {
    "Compound": "NC(=O)CN1CC(C2=C(O)CN(CC(N)=O)C2=O)=CC1=O",
    "TGI": "> 100 µM"
  },
  {
    "Compound": "Cn1nc2ccc([N+](=O)[O-])cc2[n+]1[O-]",
    "TGI": "> 100 µM"
  }
]

Recorded TGI for `CC1=C(/C=C/C(=O)CC(=O)/C=C/C2=C(C)CCCC2(C)C)C(C)(C)CCC1` on HS 578T breast was 68.4 µM

Recorded TGI for `C[C@]12Cc3cnc(-c4ccccc4)nc3C[C@@H]1CC[C@@H]1[C@@H]2CC[C@@]2(C)[C@H]1CC[C@]2(C)O` on HS 578T breast was 65.2 µM

Recorded TGI for `CC[C@H](C)C1=C(OC(C)=O)[N@+]2([O-])Oc3ccc(-c4c(O)c(O)c(-c5ccc(OC(C)=O)cc5)c(OC(C)=O)c4OC(C)=O)cc3O[C@]2([C@@H](C)CC)C(=O)N1O` on HS 578T breast was > 50 µM

Recorded TGI for `Cc1ccc(C(=O)c2sc3nc4c(cc3c2N)CCCC4)c(C)c1` on HS 578T breast was > 100 µM

Recorded TGI for `COc1cc2oc(=O)cc(C)c2c(OC)c1O` on HS 578T breast was 65 µM

Recorded TGI for `O/N=C1\CC2(N3CCOCC3)CCC1(c1ccccc1)CC2` on HS 578T breast was > 100 µM

Recorded TGI for `Clc1cc2ccccc2c2ccccc12` on HS 578T breast was > 100 µM

Recorded TGI for `CNC(=O)N(CCC#N)CCN(C(=O)N(C)C)c1ccccc1` on HS 578T breast was > 100 µM

Recorded TGI for C=CC(COC(=O)C(C)(C)OC(C)=O)c1ccc(OC(=O)C(C)C)c(OC)c1 (stereo unspecified) on HS 578T breast was 50.8 µM

---

# TGI annotations
test system: NCI-H522 lung; test: NCI tumour cell line growth inhibition, 48 h

[
  {
    "Molecule": "Cc1ccc(S(=O)(=O)OCC#CCOS(=O)(=O)c2ccc(C)cc2)cc1",
    "TGI": "3.12 µM"
  },
  {
    "Molecule": "CC(C)(C)C1CCC2c3c([nH]c4ncccc34)C3C(=O)N(c4ccccc4)C(=O)C3C2C1 (centres undefined)",
    "TGI": "> 100 µM"
  },
  {
    "Molecule": "C/C=C/C/C=C/[C@H](C)C[C@H](O)[C@@H]1C[C@@H]2O[C@H]2/C=C/[C@@H]2OC(C)(C)O[C@H]2/C=C/C[C@H](C)CC(=O)O1",
    "TGI": "31.9 µM"
  },
  {
    "Molecule": "COc1cc(-n2cc(-c3ccccc3)[nH]c2=O)cc(OC)c1OC",
    "TGI": "> 100 µM"
  },
  {
    "Molecule": "Cn1c(=O)c2sc3c4sc5c(=O)n(C)c6ccccc6c5c4sc3c2c2ccccc21",
    "TGI": "> 100 µM"
  },
  {
    "Molecule": "CC(C)(C)c1cc2c(c(C(C)(C)C)c1O)CC(=O)O2",
    "TGI": "> 100 µM"
  },
  {
    "Molecule": "C=C1c2ccccc2C(=O)c2c1c1c(C(=O)OC)c(OC(=O)OCc3ccc([N+](=O)[O-])cc3)ccc1n2Cc1ccccc1",
    "TGI": "38.6 µM"
  },
  {
    "Molecule": "COC(=O)C1CCC(=O)N1CN(C(C)=O)c1cc(OC)ccc1OC (centres undefined)",
    "TGI": "> 100 µM"
  }
]

With those in mind, consider the next molecule.
The molecule identified as `C/C(=N\NC(=O)C[N+](C)(C)C)c1sc(-c2cccnc2)nc1C` registered its TGI at > 100 µM
